Study system: disulfide-stabilized Par-6 CRIB-PDZ (CRIB-PDZ^Q144C/L164C) (D. melanogaster)
Measurement notes: fluorescence polarisation
Where no end group is shown, it is not given here. The star is where a group is joined. RhodamineB = CCN(CC)c1ccc2c(-c3ccccc3C(=O)*)c3ccc(=[N+](CC)CC)cc-3oc2c1
Catalogue of Kd values
Experimental readout: Kd

> print(dat)
                                     binder  reported.measurement
1  RhodamineB-VKESLV [N-terminally Rhodamine B-labeled VKESLV peptide]                 13 µM
2  RhodamineB-GEERLI [N-terminally Rhodamine B-labeled GEERLI peptide]                2.5 µM
